The compounds listed here are annotated with their cell viability.
- Tested on: HepG2
- assay text: cell viability relative to DMSO; higher = less toxic
- assay setup: 72 h; 1000 nM
parameter: cell viability (%)

{"columns": ["compound", "parameter", "unit of measurement", "val"],
 "data": [
  ["Cc1cc(C(=O)Nc2nc3cccc(Cl)c3n2[C@@H]2CCCCN(C(=O)/C=C/CN(C)C)C2)ccn1 [EGF816]", "cell viability", "%", 94.5],
  ["Cc1cnc(C(=O)N[C@H]2CCCCC/C=C\\[C@@H]3C[C@@]3(C(=O)NS(=O)(=O)C3CC3)NC(=O)[C@@H]3C[C@@H](Oc4nc5ccccc5c5ccccc45)CN3C2=O)cn1 [paritaprevir]", "cell viability", "%", 94.7],
  ["CC(C)(Oc1ccc(CCNC(=O)c2ccc(Cl)cc2)cc1)C(=O)O [bezafibrate]", "cell viability", "%", 97.4],
  ["c1cc(Nc2cc(C3CC3)n[nH]2)nc(Nc2ccc3[nH]cnc3c2)n1 [APY-29]", "cell viability", "%", 14.2]
]}

---

- System: Calu-3
- assay text: cell viability relative to DMSO; higher = less toxic
- assay setup: 72 h; 1000 nM
Measured cell viability of individual entries

{"columns": ["compound", "experimental target", "cell viability (%)"],
 "data": [
  ["Oc1ccc(/C=C/c2cc(O)cc(O)c2)cc1", "Calu-3", 93.7],
  ["COCCCOc1ccnc(C[S+]([O-])c2nc3ccccc3[nH]2)c1C (stereo unspecified)", "Calu-3", 103],
  ["COCC(=O)O[C@]1(CCN(C)CCCc2nc3ccccc3[nH]2)CCc2cc(F)ccc2[C@@H]1C(C)C", "Calu-3", 101],
  ["CCCN[C@@H]1CCc2c(OC)cccc2[C@@H]1C [AJ76-(+)]", "Calu-3", 96],
  ["CN1C(C(=O)Nc2ccccn2)=C(O)c2ccccc2S1(=O)=O", "Calu-3", 96.8],
  ["CN(C)C(=O)Nc1cccc(-c2ccc(N(C)C)cc2)c1", "Calu-3", 96.6],
  ["CSCC[C@H](NC(=O)[C@H](CC(C)C)NC(=O)CNC(=O)[C@H](Cc1ccccc1)NC(=O)[C@H](Cc1ccccc1)NC(=O)[C@H](CCC(N)=O)NC(=O)[C@H](CCC(N)=O)NC(=O)[C@@H]1CCCN1C(=O)[C@H](CCCCN)NC(=O)[C@@H]1CCCN1C(=O)[C@@H](N)CCCN=C(N)N)C(N)=O", "Calu-3", 96.5],
  ["CC(C)CCNc1ncccc1C(=O)N1CCN(Cc2ccccc2)CC1", "Calu-3", 92.7],
  ["COc1ccc(C2=N[C@@H](c3ccc(Cl)cc3)[C@@H](c3ccc(Cl)cc3)N2C(=O)N2CCNC(=O)C2)c(OC(C)C)c1", "Calu-3", 92.4],
  ["Nc1ncnc2c1c(-c1cnc3[nH]ccc3c1)nn2C1CCCC1", "Calu-3", 33.4],
  ["CC(C)(C)c1ccc2cc(C#N)c(C#N)cc2c1", "Calu-3", 95.8],
  ["CC(C)(C)C#Cc1cc(N(C(=O)[C@H]2CC[C@H](C)CC2)[C@H]2CC[C@@H](O)CC2)c(C(=O)O)s1", "Calu-3", 99.3],
  ["C[C@H](Cc1ccc(O)c(O)c1)[C@@H](C)Cc1ccc(O)c(O)c1", "Calu-3", 93.6],
  ["CC(C)CCN1c2nc(Nc3cc(F)c(O)c(F)c3)ncc2N(C)C(=O)[C@@H]1C", "Calu-3", 83.7],
  ["CC[C@H](C)C(=O)O[C@H]1C[C@H](O)C=C2C=C[C@H](C)[C@H](CC[C@@H](O)C[C@@H](O)CC(=O)O)[C@H]21 [PRAVASTATIN SODIUM]", "Calu-3", 98.2],
  ["Cc1ccc(NCCCc2ccccc2)c(N)c1", "Calu-3", 103],
  ["CC(C)[N+](C)(CCOC(=O)C1c2ccccc2Oc2ccccc21)C(C)C", "Calu-3", 108],
  ["COc1ccc(C2CC(c3ccccc3)=NN2c2ccc(S(N)(=O)=O)cc2)cc1 (stereo unspecified)", "Calu-3", 110],
  ["c1cc(-c2cnn3cc(-c4ccc(N5CCNCC5)cc4)cnc23)c2cccnc2c1", "Calu-3", 111],
  ["O=c1cc(N2CCOCC2)oc2c(-c3cccc4c3sc3ccccc34)cccc12", "Calu-3", 111],
  ["CCN(CCO)CCCC(C)Nc1ccnc2cc(Cl)ccc12 (stereo unspecified) [hydroxychloroquine]", "Calu-3", 109],
  ["COc1cnc(-c2ccc(Cn3c(CC(C)(C)C(=O)O)c(SC(C)(C)C)c4cc(OC[C@@H]5Cc6ccccc6N5C(C)=O)ccc43)cc2)nc1", "Calu-3", 109],
  ["CC1Nc2ccc(Cl)cc2S(=O)(=O)N1 (stereo unspecified)", "Calu-3", 97.4],
  ["CNC(=O)c1ccc2c(c1)CCO[C@H]2CCN1CCN(c2ccc(C(N)=O)cc2)CC1", "Calu-3", 107],
  ["CC(C)(C)NC(=O)[C@@H]1C[C@@H]2CCCC[C@@H]2CN1C[C@@H](O)[C@H](Cc1ccccc1)NC(=O)[C@H](CC(N)=O)NC(=O)c1ccc2ccccc2n1", "Calu-3", 102],
  ["COc1ccc(N(C(=O)Oc2c(C)cccc2C)c2ccnc(Nc3ccc(N4CCN(C)CC4)cc3)n2)c(OC)c1", "Calu-3", 104],
  ["Oc1ccc(Cl)c2c1CCC2", "Calu-3", 109],
  ["CCN1CCN(C(=O)Cc2ccc(Nc3ncc(F)c(Nc4ccc(C(=O)Nc5ccccc5Cl)cc4)n3)cc2)CC1", "Calu-3", 94.8],
  ["N#Cc1ccnc(N2C(=O)CC[C@H]2C(=O)N(c2cncc(F)c2)[C@H](C(=O)NC2CC(F)(F)C2)c2ccccc2Cl)c1", "Calu-3", 104],
  ["O=C(COc1ccc(Cl)cc1)N[C@H]1CC[C@H](NC(=O)COc2ccc(Cl)cc2)CC1", "Calu-3", 101],
  ["COc1cccc2c1C(=O)c1c(O)c3c(c(O)c1C2=O)C[C@@](O)(C(C)=O)C[C@@H]3O[C@H]1C[C@H](N)[C@H](O)[C@H](C)O1", "Calu-3", 29.4]
]}

---

- Tested on: A549-ACE2 infected with SARS-CoV-2
- assay text: morphology score (similarity to uninfected cells); higher = more like uninfected cells
- assay setup: 3 µM; 24 h
Please use T whenever morphology score is not below 0.3, and F whenever it is.

{"columns": ["molecule", "category"],
 "data": [
  ["CN1Cc2ccccc2[C@@H]2c3cccc4[nH]cc(c34)C[C@H]21", "F"],
  ["COC(=O)[C@@]12OC[C@]34[C@H]([C@@H](O)[C@@H]1O)[C@@]1(C)CC(=O)C(O)=C(C)[C@@H]1C[C@H]3OC(=O)[C@H](OC(=O)/C=C(\\C)C(C)C)[C@@H]24 [bruceantin]", "T"],
  ["O=c1cc(N2CCOCC2)oc2c(-c3cccc4c3sc3ccccc34)cccc12", "T"],
  ["CC[C@H]1CN2CCc3cc(OC)c(OC)cc3[C@@H]2C[C@@H]1C[C@H]1NCCc2cc(OC)c(OC)cc21", "T"],
  ["O=C(COc1ccc(Cl)cc1)N[C@H]1CC[C@H](NC(=O)COc2ccc(Cl)cc2)CC1", "F"],
  ["N#CC[C@@H](C1CCCC1)n1cc(-c2ncnc3[nH]ccc23)cn1 [ruxolitinib-(S)]", "F"],
  ["CC(C)(Cc1ccc2ccccc2c1)NC[C@@H](O)COc1cccc(Cl)c1C#N", "T"]
]}

---

- Tested on: A549-ACE2 infected with SARS-CoV-2
- assay text: morphology score (similarity to uninfected cells); higher = more like uninfected cells
- assay setup: 30 µM; 24 h

{"columns": ["compound", "experimental target", "morphology score"],
 "data": [
  ["O=C1C=C2C=C[C@@H]3C[C@@]2(O1)[C@H]1CCCCN31", "A549-ACE2 infected with SARS-CoV-2", -0.11],
  ["COCC(=O)O[C@]1(CCN(C)CCCc2nc3ccccc3[nH]2)CCc2cc(F)ccc2[C@@H]1C(C)C", "A549-ACE2 infected with SARS-CoV-2", -0.08],
  ["N#CC[C@@H](C1CCCC1)n1cc(-c2ncnc3[nH]ccc23)cn1 [ruxolitinib-(S)]", "A549-ACE2 infected with SARS-CoV-2", -0.15],
  ["CC(=O)O[C@@H]1C[C@H]2C(C)(C)C(=O)C=C[C@]2(C)[C@H]2CC[C@@]3(C)[C@H](c4ccoc4)OC(=O)[C@H]4O[C@]43[C@@]21C", "A549-ACE2 infected with SARS-CoV-2", 0.52]
]}

---

Measured cell viability, listed per entry.
- Test system: HepG2
- assay text: cell viability relative to DMSO; higher = less toxic
- assay setup: 72 h; 100 nM
parameter: cell viability (%)

{"columns": ["compound", "experimental target", "unit of measurement", "val"],
 "data": [
  ["COc1cc2c(cc1OC)-c1c(C)c3ccc(OC)c(OC)c3c[n+]1CC2 [dehydrocorydaline]", "HepG2", "%", 95.1],
  ["CC1(C)OC[C@H](NC(=O)Nc2ccc(Br)cc2Br)[C@H](c2ccccc2)O1", "HepG2", "%", 93.6],
  ["N[C@]1(C(=O)O)CC[C@@H](C(=O)O)C1 [cis-ACPD]", "HepG2", "%", 99.5],
  ["C[C@]12CC[C@@H](O)C[C@H]1CC[C@@H]1[C@@H]2CC[C@]2(C)C(=O)CC[C@@H]12 [3-alpha-hydroxy-5-beta-androstan-17-one]", "HepG2", "%", 102],
  ["CCN1CCN(C(=O)Cc2ccc(Nc3ncc(F)c(Nc4ccc(C(=O)Nc5ccccc5Cl)cc4)n3)cc2)CC1", "HepG2", "%", 89.6],
  ["O=C(O)CCCc1ccccc1 [phenylbutyrate]", "HepG2", "%", 105],
  ["CCCCC#Cc1nc(NC)c2ncn([C@@H]3O[C@H](CO)[C@@H](O)[C@H]3O)c2n1", "HepG2", "%", 99.7],
  ["CC(=O)Nc1ccc(OC(C)=O)cc1 [diacetamate]", "HepG2", "%", 110],
  ["O=C(Oc1ccccc1C(=O)O)c1ccccc1O", "HepG2", "%", 100],
  ["C=C(C)[C@@H]1CC[C@]2(C(=O)O)CC[C@]3(C)[C@H](CC[C@@H]4[C@@]5(C)CC[C@H](O)C(C)(C)[C@@H]5CC[C@]43C)[C@@H]12", "HepG2", "%", 114],
  ["O=C(O)CCC/C=C\\C[C@@H]1[C@@H](/C=C/[C@@H](O)COc2cccc(Cl)c2)[C@H](O)C[C@@H]1O (racemic) [cloprostenol-(+/-)]", "HepG2", "%", 104],
  ["COc1cc(NC(=O)c2cccc(-n3cc(NC(=O)Nc4cccc(C)c4)cn3)c2)cc(OC)c1OC", "HepG2", "%", 94.1],
  ["N[C@H]1C(O)O[C@H](CO)[C@@H](O)[C@@H]1O (mixture of isomers)", "HepG2", "%", 109],
  ["N#CC[C@@H](C1CCCC1)n1cc(-c2ncnc3[nH]ccc23)cn1 [ruxolitinib-(S)]", "HepG2", "%", 92.3],
  ["CC(C)C[C@H](NC(=O)OCc1ccccc1)C(=O)N[C@@H](C[C@@H]1CCNC1=O)C(O)S(=O)(=O)O (stereo partly drawn) [GC376 sodium]", "HepG2", "%", 97],
  ["C=C(C)[C@@H]1CCC(C)=C[C@H]1c1c(OC)cc(C)cc1OC", "HepG2", "%", 104],
  ["CC(=O)c1ccc2c(c1)[C@H](NC(=O)c1ccc(F)c(Cl)c1)[C@H](O)C(C)(C)O2", "HepG2", "%", 126],
  ["CCCN1CCCC[C@H]1C(=O)Nc1c(C)cccc1C", "HepG2", "%", 89.2],
  ["CC(C)OC(=O)[C@H](C)N[P@](=O)(CO[C@H](C)Cn1cnc2c(N)ncnc21)Oc1ccccc1 [tenofovir-alafenamide]", "HepG2", "%", 116],
  ["Cc1c(C(=O)NCc2cccnc2)nn(-c2ccc(Cl)cc2Cl)c1-c1ccc(Cl)cc1", "HepG2", "%", 96.2],
  ["CC(=O)O[C@@H]1C[C@H]2C(C)(C)C(=O)C=C[C@]2(C)[C@H]2CC[C@@]3(C)[C@H](c4ccoc4)OC(=O)[C@H]4O[C@]43[C@@]21C", "HepG2", "%", 103],
  ["COc1cc(N2CCC(N3CCN(C)CC3)CC2)ccc1Nc1ncc(Cl)c(Nc2ccccc2P(C)(C)=O)n1", "HepG2", "%", 105],
  ["NC(=O)CN1CC(c2ccccc2)CC1=O (stereo not drawn)", "HepG2", "%", 104],
  ["Nc1ccc2ncnc(NCCc3ccc(Oc4ccccc4)cc3)c2c1", "HepG2", "%", 78.1],
  ["C[C@H](Cc1ccc(O)c(O)c1)[C@@H](C)Cc1ccc(O)c(O)c1", "HepG2", "%", 94.5],
  ["CC1=NN(c2ccc(C(=O)O)cc2)C(=O)C1=Cc1ccc(-c2cc(C)c(C)cc2[N+](=O)[O-])o1", "HepG2", "%", 92.5],
  ["CCC(CC)[C@H](NC(C)=O)[C@@H]1[C@H](O)[C@@H](C(=O)O)C[C@H]1NC(=N)N", "HepG2", "%", 102],
  ["Cc1cccc(-c2nn3c(c2-c2ccnc4ccc(C(N)=O)cc24)CCC3)n1", "HepG2", "%", 106],
  ["CCCN[C@@H]1CCc2c(OC)cccc2[C@@H]1C [AJ76-(+)]", "HepG2", "%", 103],
  ["Cc1ccc(C(=O)Nc2ccc(CN3CCN(C)CC3)c(C(F)(F)F)c2)cc1C#Cc1cnc2[nH]ncc2c1", "HepG2", "%", 71.2],
  ["CC(C)N1CCN(c2ccc(C(=O)c3c(-c4ccc(O)cc4)sc4cc(O)ccc34)cc2)CC1", "HepG2", "%", 94],
  ["Cn1c2cc([S+](C)[O-])sc2c2cnn(Cc3cccc(N)c3)c(=O)c21 (stereo not drawn)", "HepG2", "%", 111],
  ["CN(C)CC/C=C1/c2ccccc2Sc2ccc(Cl)cc21", "HepG2", "%", 103]
]}
